Just for reference, ChEMBL document CHEMBL3433997 is where these values come from.

# experimental target: Solute carrier family 2, facilitated glucose transporter member 1 (Homo sapiens) (UniProt P11166)
# Sequence (P11166 whole entry): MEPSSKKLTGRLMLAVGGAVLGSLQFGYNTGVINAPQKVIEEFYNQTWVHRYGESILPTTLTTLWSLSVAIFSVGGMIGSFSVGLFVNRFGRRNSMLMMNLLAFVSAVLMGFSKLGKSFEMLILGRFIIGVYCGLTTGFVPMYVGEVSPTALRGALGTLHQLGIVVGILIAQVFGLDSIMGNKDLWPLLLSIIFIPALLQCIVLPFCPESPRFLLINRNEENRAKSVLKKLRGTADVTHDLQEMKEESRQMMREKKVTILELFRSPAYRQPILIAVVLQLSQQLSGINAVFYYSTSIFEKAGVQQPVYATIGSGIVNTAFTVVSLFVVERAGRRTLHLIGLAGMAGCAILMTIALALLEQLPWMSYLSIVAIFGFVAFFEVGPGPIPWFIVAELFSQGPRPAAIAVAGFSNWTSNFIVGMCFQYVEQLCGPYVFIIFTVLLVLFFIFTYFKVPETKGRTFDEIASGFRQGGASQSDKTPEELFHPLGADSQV
# method notes: ST_JUDE_LEISH: Cytotoxicity at 2uM final concentration against transgenic Leishmania Mexicana promastigotes LmGLUT1 that are glucose transport deficient and complemented with the human glucose transporter GLUT1. Activity is measured by DNA content using SYBR green in vitro
# Format: functional
attribute measured: inhibition (%)
Give a bare numeral; the unit % is implied.

Need inhibition, item CCN1CCC(N(CCCCCCc2ccc(C(F)(F)F)cc2)C(=O)Cn2c(CCc3cccc(F)c3F)cc(=O)c3ccccc32)CC1
5.17

Need inhibition, item COc1ccccc1-c1nc2c(ccc3nc(N)nc(N)c32)[nH]1
49.5

Need inhibition, item C[C@H]1CN(Cc2cccc(-c3cc(CNC(=O)c4cccc(CC5CCN(C)CC5)c4)ccc3F)c2)CCN1C
0.87

Need inhibition, item CC1CN(c2cnn(Cc3ccc(NC(=O)Nc4ccc(-c5ccccc5)cc4)cc3)c(=O)c2Cl)CC(C)N1 (stereo not given)
1.43

Need inhibition, item CC1(C)NC(N)=NC(=N)N1OCCNCc1ccc(Cl)cc1
4.58
